Target: Liver carboxylesterase (Sus scrofa, UniProt Q29550)
Sequence (Q29550 whole entry): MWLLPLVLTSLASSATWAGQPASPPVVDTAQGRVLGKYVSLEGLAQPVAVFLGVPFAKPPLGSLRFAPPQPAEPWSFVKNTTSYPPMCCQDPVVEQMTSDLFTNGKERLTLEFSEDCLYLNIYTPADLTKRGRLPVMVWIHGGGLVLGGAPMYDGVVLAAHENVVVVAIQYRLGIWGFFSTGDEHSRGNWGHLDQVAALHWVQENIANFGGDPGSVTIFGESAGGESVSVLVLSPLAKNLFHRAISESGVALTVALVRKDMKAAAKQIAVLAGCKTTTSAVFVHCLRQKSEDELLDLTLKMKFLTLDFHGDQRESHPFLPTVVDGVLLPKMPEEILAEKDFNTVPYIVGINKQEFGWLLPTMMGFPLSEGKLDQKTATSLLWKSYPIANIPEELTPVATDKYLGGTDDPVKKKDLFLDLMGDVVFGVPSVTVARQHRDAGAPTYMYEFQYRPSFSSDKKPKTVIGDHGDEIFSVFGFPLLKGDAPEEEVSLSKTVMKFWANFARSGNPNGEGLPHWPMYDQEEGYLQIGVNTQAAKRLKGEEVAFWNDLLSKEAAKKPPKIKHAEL
Experiment: Drug metabolism in PBS buffer assessed as porcine liver esterase-mediated carbon monoxide release at pH 7 at 20 uM incubated for 48 hrs by HPLC analysis
Assay type: ADME
Conditions: pig, isolated protein, pH 7, 48 h
TEST READOUT: t1/2

>>> observed_result("CC(=O)OC(OC(C)=O)[C@@H]1[C@H](S(=O)(=O)c2ccccc2)[C@]2(C)C(=O)[C@]1(C)C(c1ccccc1)=C2c1ccccc1")
"0.5 to 8 h"

These entries and their values trace back to ChEMBL document CHEMBL4316601.
